Biological target: EPHB1 (UniProt P54762)
Sequence (P54762 whole entry, looked up): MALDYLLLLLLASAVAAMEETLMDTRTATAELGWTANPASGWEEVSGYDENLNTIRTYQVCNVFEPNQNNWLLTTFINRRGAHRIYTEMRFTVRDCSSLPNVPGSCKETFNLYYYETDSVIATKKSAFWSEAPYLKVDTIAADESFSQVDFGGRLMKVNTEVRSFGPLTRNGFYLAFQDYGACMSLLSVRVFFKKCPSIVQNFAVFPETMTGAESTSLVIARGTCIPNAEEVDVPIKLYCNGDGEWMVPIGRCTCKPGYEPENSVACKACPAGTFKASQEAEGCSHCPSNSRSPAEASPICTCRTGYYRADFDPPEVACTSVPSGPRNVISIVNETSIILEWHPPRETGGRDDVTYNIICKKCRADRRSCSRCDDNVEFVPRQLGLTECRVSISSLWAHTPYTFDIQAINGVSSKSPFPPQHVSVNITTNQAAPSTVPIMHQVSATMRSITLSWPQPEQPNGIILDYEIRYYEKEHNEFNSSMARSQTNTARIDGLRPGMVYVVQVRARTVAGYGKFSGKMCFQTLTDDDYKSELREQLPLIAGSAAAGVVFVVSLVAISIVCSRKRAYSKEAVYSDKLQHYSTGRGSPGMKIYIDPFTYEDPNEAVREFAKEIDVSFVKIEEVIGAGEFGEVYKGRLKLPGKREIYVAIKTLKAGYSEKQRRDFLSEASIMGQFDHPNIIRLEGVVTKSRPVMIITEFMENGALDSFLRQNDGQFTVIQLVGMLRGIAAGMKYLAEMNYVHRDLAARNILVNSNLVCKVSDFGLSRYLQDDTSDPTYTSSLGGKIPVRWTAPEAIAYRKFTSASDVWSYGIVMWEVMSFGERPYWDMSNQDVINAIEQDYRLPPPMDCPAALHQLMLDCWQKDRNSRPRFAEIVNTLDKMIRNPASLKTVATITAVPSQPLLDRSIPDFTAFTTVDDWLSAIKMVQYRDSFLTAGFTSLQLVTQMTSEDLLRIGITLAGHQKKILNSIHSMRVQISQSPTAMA
Test: phosphorylation enrichment, bacterial display (enrichment ratio); higher = better substrate or ligand; peptides without Tyr show the background;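 note: 11-residue human phosphosite peptides and single-mutation variants displayed on the E. coli surface, counted by deep sequencing, each peptide's frequency after selection divided by its frequency in the unselected input library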;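 note: frequency after pTyr selection over input frequency; kinase dosed for 20-30% of maximal phosphorylation in three min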
MEASUREMENT KIND: phosphorylation enrichment
Please give the numeric answer without any surrounding text.

Record NTCNRYCRDEI [ITGB3_Y660] : what is its phosphorylation enrichment with EPHB1 (UniProt P54762)? 0.567

GET /values?readout=phosphorylation enrichment&system=EPHB1 (UniProt P54762)&item= PPSGEYFGQCG [TRIP6_Y275] 1.39

// map LQTFHYHGHSM [PDHA1_Y289_R288H_YF] to recorded phosphorylation enrichment (system: EPHB1 (UniProt P54762)) 0.322

Checklist item: phosphorylation enrichment tested on EPHB1 (UniProt P54762), entry FTNRSYDLDYD [MYC_Y12_N11S] , value? 0.542

Please tell me: phosphorylation enrichment of WRVIGYHVVVW [ATP13A2_Y50] , system EPHB1 (UniProt P54762)? 0.695

Provide value of phosphorylation enrichment for this record tested with EPHB1 (UniProt P54762): YTGSTYRVGDT [FN1_Y106_N104S] 0.422

# returns recorded phosphorylation enrichment (system: EPHB1 (UniProt P54762)) for AKRKNYAPVAM [CFAP47_Y557] 0.648

Return phosphorylation enrichment measured with EPHB1 (UniProt P54762) given this sequence: DGLASYLDKVR [KRT12_Y139_R135G] 0.41

Item: YNDSTYNQQLI [ZPLD1_Y198] Test system: EPHB1 (UniProt P54762) Read-out: phosphorylation enrichment Value: ? 0.521

What is its phosphorylation enrichment for EPHB1 (UniProt P54762)? Entry: VTVLDYDKIGK [SYT1_Y365] 0.45

What value of phosphorylation enrichment on EPHB1 (UniProt P54762) does FFRKFYNKSED [RYR1_Y4864] have? 0.386

Return phosphorylation enrichment measured with EPHB1 (UniProt P54762) given this sequence: TGTQLYGRFGS [ITGA2B_Y384] 0.351

# returns recorded phosphorylation enrichment (system: EPHB1 (UniProt P54762)) for RPYVYYYSYLL [PTEN_Y177_R173P] 2.64

# query: phosphorylation enrichment | item SVVVPYEPPEG [TP53_Y220_V225G] | system: EPHB1 (UniProt P54762) 0.685

What value of phosphorylation enrichment on EPHB1 (UniProt P54762) does KEDSAYGSQSV [NFKB2_Y868] have? 0.502

Hello, I am looking for reported phosphorylation enrichment with EPHB1 (UniProt P54762) for SDVSSYLEGQA [GCG_Y110] . Could you help? 0.469

I'm curious: which phosphorylation enrichment was measured for GFKVRYATWSI [FGFR1_Y210_YF] tested on EPHB1 (UniProt P54762)? 0.714

API: value(readout= phosphorylation enrichment, system= EPHB1 (UniProt P54762), query= QPGTDYKIFLF [FN1_Y1970_YF] ) 1.05

Give recorded phosphorylation enrichment with EPHB1 (UniProt P54762) for the following sequence: FGLQAYTKVKT [ALDH2_Y502_E504K_YF] 0.763

State its phosphorylation enrichment on EPHB1 (UniProt P54762): TTPFNYSFIFK [RAB14_Y8_A4T_YF] 2.1

Value wanted: phosphorylation enrichment (EPHB1 (UniProt P54762)) of entry WGLCSYYETSK [MAGED2_Y448_R446C] 0.865

Request: phosphorylation enrichment, test system EPHB1 (UniProt P54762), entry LSVMSYDLGMF [GBA3_Y174] 0.876

What phosphorylation enrichment appears in the records for this sequence with EPHB1 (UniProt P54762)? QGQHWYSSSDT [CASP10_Y9_K14T] 0.859
